System: HepG2
Test: GSK_TCMDC: Percent inhibition of human HepG2 cell line. Test compounds present at 10uM.
Type: functional
Would you please tag the item true when its Inhibition is 20% or above, and false when it is below?

[
  {
    "MOLECULE": "Nc1ccc(-c2nc3cc(Oc4ccc5[nH]c(-c6ccc(N)cc6)nc5c4)ccc3[nH]2)cc1",
    "CLASS NAME": "false"
  },
  {
    "MOLECULE": "O=C(Nc1cccc(CN2CCCN(Cc3ccc(O)cc3)CC2)c1)c1cccc(Cl)c1.O=C(O)C(F)(F)F",
    "CLASS NAME": "false"
  },
  {
    "MOLECULE": "Cc1cc(N(CCCN(C)C)Cc2cc(F)cc(F)c2)nc(Nc2ccc(Cl)cc2)n1",
    "CLASS NAME": "true"
  },
  {
    "MOLECULE": "Cc1cc(N[C@@H](Cc2ccccc2)C(=O)NCCc2ccccc2)nc(NCC2CCCCC2)n1.O=C(O)C(F)(F)F",
    "CLASS NAME": "true"
  },
  {
    "MOLECULE": "Cc1cc(-c2cc(Cl)ccc2Cl)no1",
    "CLASS NAME": "true"
  },
  {
    "MOLECULE": "COc1cc(C(=O)N2CCOC(CCN3CCc4c(c5ccccc5n4C)C3)(c3ccc(Cl)c(Cl)c3)C2)cc(OC)c1OC (configuration not stated)",
    "CLASS NAME": "false"
  },
  {
    "MOLECULE": "O=C(C=Cc1cn(-c2ccccc2)nc1-c1cccs1)N1CCN(c2ccncc2)CC1",
    "CLASS NAME": "true"
  },
  {
    "MOLECULE": "CC(C)c1ccc(N2CCN(CCCCNC(=O)c3ccc(NC(=O)c4cc(Cl)cc(Cl)c4)cc3)CC2)cc1",
    "CLASS NAME": "false"
  },
  {
    "MOLECULE": "CCc1nc2c(cnn2CC)c(NC2CCOCC2)c1CNC(=O)c1ccoc1C",
    "CLASS NAME": "false"
  },
  {
    "MOLECULE": "Br.CCCCc1ccc(CCNCCCCCCNCCc2ccc(O)c(O)c2)cc1",
    "CLASS NAME": "true"
  },
  {
    "MOLECULE": "N=C(N)Nc1ccc(C(=O)O)c(O)c1",
    "CLASS NAME": "false"
  },
  {
    "MOLECULE": "CNC(=O)c1ccccc1Nc1nc(Nc2ccc(N3CCOCC3)cc2)ncc1Cl.Cl",
    "CLASS NAME": "true"
  },
  {
    "MOLECULE": "CCN1CCCC(Nc2ccnc3cc4ccccc4cc23)C1 (configuration not stated)",
    "CLASS NAME": "true"
  },
  {
    "MOLECULE": "COc1ccc(-c2cccc(NC(=O)c3cccc(C#N)c3)c2)cc1CN1CCCN(C)CC1.O=C(O)C(F)(F)F",
    "CLASS NAME": "true"
  },
  {
    "MOLECULE": "COc1ccc2c(=NN=CC=Cc3ccccc3)cc(C)[nH]c2c1",
    "CLASS NAME": "false"
  },
  {
    "MOLECULE": "O=C(NCCCCCN1CCCN(C(=O)Nc2ccc(Cl)c(C(F)(F)F)c2)CC1)C1CC1c1ccc(Cl)c(Cl)c1 (configuration not stated)",
    "CLASS NAME": "true"
  },
  {
    "MOLECULE": "N[C@@H](Cc1cc(I)c(Oc2ccc(O)c(Cl)c2)c(I)c1)C(=O)O",
    "CLASS NAME": "false"
  },
  {
    "MOLECULE": "Cc1ccc(CNC(=O)[C@H](CC(C)C)Nc2cc(C)nc(NCC3CCCCC3)n2)cc1.O=C(O)C(F)(F)F",
    "CLASS NAME": "false"
  },
  {
    "MOLECULE": "CC(C)c1ccc(CN2CCC(NC(=O)c3ccc(-c4cccc(Cl)c4)s3)CC2)cc1.O=C(O)C(F)(F)F",
    "CLASS NAME": "true"
  },
  {
    "MOLECULE": "CC(c1cccc(S(=O)(=O)NCc2ccc(Cl)cc2Cl)c1)N1CCC(N2CCCCC2)CC1 (configuration not stated)",
    "CLASS NAME": "true"
  },
  {
    "MOLECULE": "COCCCN=C(S)NN=C(C)c1ccccn1",
    "CLASS NAME": "true"
  },
  {
    "MOLECULE": "COc1cc(C(=O)Nc2cccc(-c3nc4ccccc4[nH]3)c2)ccc1OC(C)=O",
    "CLASS NAME": "false"
  },
  {
    "MOLECULE": "Cc1cc(NC(=O)c2cccs2)ccc1OC1CCN(Cc2ccccc2)CC1.O=C(O)C(F)(F)F",
    "CLASS NAME": "false"
  },
  {
    "MOLECULE": "O=C(Nc1cccc(-c2ccc(-c3nc4cc(F)ccc4[nH]3)cc2)c1)Nc1ccc(Cl)c(Cl)c1",
    "CLASS NAME": "true"
  },
  {
    "MOLECULE": "CN(C)Cc1cccc(-c2ccc(NC(=O)c3ccc4c(=O)n(C5CCCCC5)cnc4c3)cc2)c1",
    "CLASS NAME": "true"
  },
  {
    "MOLECULE": "Cc1cc(N[C@@H](CC(C)C)C(=O)NCc2cccs2)nc(Nc2ccccc2)n1.O=C(O)C(F)(F)F",
    "CLASS NAME": "false"
  },
  {
    "MOLECULE": "CCOC(=O)c1cc(=O)c2ccc(OCC#N)cc2o1",
    "CLASS NAME": "false"
  },
  {
    "MOLECULE": "O=C(NCCN1CCCC1)N1CCCN(c2ncnc3cc(-c4ccc(Cl)cc4)sc23)CC1.O=C(O)C(F)(F)F",
    "CLASS NAME": "false"
  },
  {
    "MOLECULE": "COc1cc2ncnc(Nc3ccc(OCc4ccccc4)c(C(F)(F)F)c3)c2cc1OC.Cl",
    "CLASS NAME": "false"
  },
  {
    "MOLECULE": "CCc1cn(C)c2c(N3CCCC3=O)cc(C(=O)N[C@@H](Cc3ccccc3)[C@H](O)CNC(C)(C)c3cccc(C(F)(F)F)c3)cc12",
    "CLASS NAME": "true"
  },
  {
    "MOLECULE": "COc1cc(NC(=O)N2CCc3ccc(OCCN4CCCCC4)cc32)cc(C(F)(F)F)c1.O=C(O)C(F)(F)F",
    "CLASS NAME": "false"
  },
  {
    "MOLECULE": "O=C(O)C(F)(F)F.Oc1ccc(CCNc2nc(NCc3ccccc3-c3ccccc3)nc(N3CCCNCC3)n2)cc1",
    "CLASS NAME": "true"
  },
  {
    "MOLECULE": "CC(C)C[C@H](NC(=O)c1cc(-c2ccc(F)cc2)no1)C(=O)O.CC(C)C[C@H](NC(=O)c1conc1-c1ccc(F)cc1)C(=O)O",
    "CLASS NAME": "false"
  },
  {
    "MOLECULE": "Cc1cccc(CC2CC(=O)N(c3ccc([N+](=O)[O-])cc3)C2=O)c1 (configuration not stated)",
    "CLASS NAME": "false"
  },
  {
    "MOLECULE": "Cc1cc(C(=O)Nc2nc(-c3ccccn3)nc3ccsc23)no1",
    "CLASS NAME": "true"
  },
  {
    "MOLECULE": "O=C(Nc1ccc(Cl)cc1)OCCn1nnnc1C(c1ccc(Cl)cc1)N1CCOCC1 (configuration not stated)",
    "CLASS NAME": "false"
  },
  {
    "MOLECULE": "COc1ccc2nccc([C@@H](O)CN3CCC(NC(=O)Cc4cccc5c(Br)cccc45)CC3)c2c1",
    "CLASS NAME": "false"
  }
]
